meta.source: the supplement of paper PMC9112550

Tested on: Escherichia coli TOP10
Assay: shrunken log2 fold change of peptide-encoding DNA abundance (4.5 h post-induction vs induction); higher = less antimicrobial activity (less host growth inhibition)
Conditions: time post-induction: 4.5 h; library: site-saturation at positions 5, 18, 19, 20
reported property: shrunken log2 fold change
// response body must contain only the number

Solved entries (count: 4):
>>> reading("RRIRPRPPRLPRPRPRPGNLPRP")
-0.376
>>> reading("RRIRCRPPRLPRPRPRPAFQPRP")
0.0486
>>> reading("RRIRMRPPRLPRPRPRPCHTPRP")
0.0555
>>> reading("RRIRYRPPRLPRPRPRPFPRPRP")
-0.0964

shrunken log2 fold change measured on RRIRKRPPRLPRPRPRPDGDPRP = 3.21

Lab note: RRIRFRPPRLPRPRPRPGHFPRP gave shrunken log2 fold change of -0.24

Lab note: RRIRCRPPRLPRPRPRPMSYPRP gave shrunken log2 fold change of -0.23

For reference, reported shrunken log2 fold change for RRIRLRPPRLPRPRPRPRLQPRP stands at 0.15

---

shrunken log2 fold change reference
System: Escherichia coli TOP10
Test: shrunken log2 fold change of peptide-encoding DNA abundance (4.5 h post-induction vs induction); higher = less antimicrobial activity (less host growth inhibition)
Conditions: time post-induction: 4.5 h; library: site-saturation at positions 5, 18, 19, 20
A bare number is all that is needed in reply.

Study these solved cases before continuing.
>>> reading("RRIRHRPPRLPRPRPRPHSTPRP")
-0.349
>>> reading("RRIRWRPPRLPRPRPRPFEQPRP")
0.0143
>>> reading("RRIRRRPPRLPRPRPRPYDGPRP")
-0.101
>>> reading("RRIRVRPPRLPRPRPRPACEPRP")
0.165
>>> reading("RRIRLRPPRLPRPRPRPRKTPRP")
0.0104

The sequence identified as RRIRMRPPRLPRPRPRPYNTPRP registered its shrunken log2 fold change at -0.862

The value of shrunken log2 fold change measured for the sequence RRIRFRPPRLPRPRPRPCMDPRP turned out to be -0.336

RRIRARPPRLPRPRPRPSDCPRP yielded shrunken log2 fold change of -0.164

---

Tested on: Escherichia coli TOP10
Assay: shrunken log2 fold change of peptide-encoding DNA abundance (4.5 h post-induction vs induction); higher = less antimicrobial activity (less host growth inhibition)
Settings: time post-induction: 4.5 h; library: site-saturation at positions 5, 18, 19, 20
Respond with condition met for shrunken log2 fold change values of -0.03 and above, condition not met for values below.

Known results for sequences:
>>> category_label("RRIRVRPPRLPRPRPRPCCMPRP")
"condition not met"
>>> category_label("RRIRWRPPRLPRPRPRPGEFPRP")
"condition met"
>>> category_label("RRIRVRPPRLPRPRPRPVTKPRP")
"condition met"
>>> category_label("RRIRSRPPRLPRPRPRPHNPPRP")
"condition not met"
>>> category_label("RRIRQRPPRLPRPRPRPAYKPRP")
"condition not met"

Input line: Is it the case that RRIRYRPPRLPRPRPRPRSIPRP has shrunken log2 fold change reaching or exceeding -0.03?
Output line: condition not met

Input line: Assess whether reported shrunken log2 fold change for RRIRLRPPRLPRPRPRPFHYPRP sits at -0.03 or higher.
Output line: condition not met

Input line: Please indicate if the recorded shrunken log2 fold change for RRIRARPPRLPRPRPRPCAIPRP meets or exceeds -0.03.
Output line: condition met

Input line: Record RRIRIRPPRLPRPRPRPDIIPRP ; criterion: shrunken log2 fold change no lower than -0.03. Met?
Output line: condition not met

Input line: // inclusive: shrunken log2 fold change at least -0.03? input: RRIRQRPPRLPRPRPRPECNPRP
Output line: condition met

Input line: Say whether RRIRVRPPRLPRPRPRPTMPPRP shows shrunken log2 fold change of -0.03 or more.
Output line: condition met

Input line: shrunken log2 fold change >= -0.03 for RRIRHRPPRLPRPRPRPHRFPRP ?
Output line: condition not met

Input line: Identify whether the reported shrunken log2 fold change of the following sequence is -0.03 or greater: RRIRWRPPRLPRPRPRPSVQPRP
Output line: condition met

Input line: Quick check, shrunken log2 fold change >= -0.03? RRIRIRPPRLPRPRPRPMFDPRP
Output line: condition not met

Input line: API: above_or_equal(metric=shrunken log2 fold change, cutoff=-0.03) for item RRIRMRPPRLPRPRPRPQTCPRP
Output line: condition met

Input line: Does the sequence RRIRPRPPRLPRPRPRPYAQPRP have recorded shrunken log2 fold change that is -0.03 or more?
Output line: condition not met

Input line: Confirm if shrunken log2 fold change reported for the sequence RRIRGRPPRLPRPRPRPTLWPRP is -0.03 or above.
Output line: condition met

Input line: // inclusive: shrunken log2 fold change at least -0.03? input: RRIRYRPPRLPRPRPRPMRCPRP
Output line: condition met

Input line: Threshold query (shrunken log2 fold change >= -0.03) on RRIRVRPPRLPRPRPRPTLGPRP
Output line: condition met

Input line: Tell me whether shrunken log2 fold change is at least -0.03 here: RRIRHRPPRLPRPRPRPRTWPRP
Output line: condition met

Input line: Hello, I need to know if RRIRHRPPRLPRPRPRPLEPPRP has measured shrunken log2 fold change not below -0.03. Thanks!
Output line: condition not met

Input line: Test whether the sequence RRIRRRPPRLPRPRPRPYPTPRP records shrunken log2 fold change of -0.03 or higher.
Output line: condition not met

Input line: Test whether the sequence RRIRWRPPRLPRPRPRPPTWPRP records shrunken log2 fold change of -0.03 or higher.
Output line: condition met

Input line: Given the entry RRIRYRPPRLPRPRPRPQIWPRP , answer whether its shrunken log2 fold change meets or surpasses -0.03.
Output line: condition not met

Input line: Textbook exercise: given the entry RRIRLRPPRLPRPRPRPQIGPRP , state whether its shrunken log2 fold change is greater than or equal to -0.03.
Output line: condition met

Input line: Textbook exercise: given the entry RRIRGRPPRLPRPRPRPNLKPRP , state whether its shrunken log2 fold change is greater than or equal to -0.03.
Output line: condition met

Input line: Is reported shrunken log2 fold change greater than or equal to -0.03 here: RRIRTRPPRLPRPRPRPYVLPRP
Output line: condition not met

Input line: Identify whether the reported shrunken log2 fold change of the following sequence is -0.03 or greater: RRIRSRPPRLPRPRPRPNLGPRP
Output line: condition not met

---

Tested on: Escherichia coli TOP10
Assay: shrunken log2 fold change of peptide-encoding DNA abundance (4.5 h post-induction vs induction); higher = less antimicrobial activity (less host growth inhibition)
Conditions: time post-induction: 4.5 h; library: site-saturation at positions 5, 18, 19, 20
reported property: shrunken log2 fold change
Response field accepts a number only; no unit should be typed.

>>> reading("RRIRARPPRLPRPRPRPLVYPRP")
-0.372
>>> reading("RRIRWRPPRLPRPRPRPTCDPRP")
0.388
>>> reading("RRIRNRPPRLPRPRPRPYERPRP")
0.0318
>>> reading("RRIRYRPPRLPRPRPRPGDYPRP")
0.065
>>> reading("RRIRERPPRLPRPRPRPLAHPRP")
-0.368

Reported shrunken log2 fold change ( RRIRNRPPRLPRPRPRPPYQPRP ) = -0.22

Lab note: RRIRDRPPRLPRPRPRPTPMPRP gave shrunken log2 fold change of 0.234

Notebook: RRIRIRPPRLPRPRPRPTIMPRP , shrunken log2 fold change read as -0.745

// recorded shrunken log2 fold change for RRIRGRPPRLPRPRPRPLAHPRP : 0.546

What the record says about RRIRDRPPRLPRPRPRPIVVPRP : shrunken log2 fold change is 0.218

Notebook: RRIRSRPPRLPRPRPRPAILPRP , shrunken log2 fold change read as -0.313

According to the records, this sequence RRIRGRPPRLPRPRPRPRILPRP displays shrunken log2 fold change of 0.404

Short answer for RRIRNRPPRLPRPRPRPCAVPRP : shrunken log2 fold change was -0.273

So for RRIRERPPRLPRPRPRPTHTPRP , the logged shrunken log2 fold change turned out to be -0.409

The recorded shrunken log2 fold change for RRIRARPPRLPRPRPRPLEEPRP is 1.04

Memo: RRIRKRPPRLPRPRPRPWKNPRP , reported shrunken log2 fold change: -0.00973

sequence RRIRFRPPRLPRPRPRPMVAPRP , shrunken log2 fold change observed: 0.297

Form: sequence = RRIRFRPPRLPRPRPRPGWFPRP ; shrunken log2 fold change = 0.237

Measured shrunken log2 fold change, RRIRIRPPRLPRPRPRPHEPPRP : -0.129

---

System: Escherichia coli TOP10;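 further: peptides expressed intracellularly from a pBAD plasmid library in pooled LB shake-flask culture, induced with 0.3% L-arabinose, DNA abundance read by NGS, three biological replicates, DESeq2 with apeglm shrinkage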
Test: shrunken log2 fold change of peptide-encoding DNA abundance (4.5 h post-induction vs induction); higher = less antimicrobial activity (less host growth inhibition)
Conditions: time post-induction: 4.5 h; library: site-saturation at positions 5, 18, 19, 20
Collected shrunken log2 fold change values appear next to each entry.
// return just the number, without any unit appended

The following sequences have reported results that may help.
>>> reading("RRIRHRPPRLPRPRPRPVTKPRP")
-0.055
>>> reading("RRIRMRPPRLPRPRPRPTFKPRP")
0.198
>>> reading("RRIRFRPPRLPRPRPRPNHPPRP")
-0.84
>>> reading("RRIRIRPPRLPRPRPRPEEKPRP")
0.461
>>> reading("RRIRKRPPRLPRPRPRPATAPRP")
0.18
>>> reading("RRIRDRPPRLPRPRPRPFTQPRP")
-0.147

Consider the record given below.
get_value(item= RRIRQRPPRLPRPRPRPFFKPRP , readout=shrunken log2 fold change) returns -0.132
